System: omega 3 sites
Experiment: Global ischemia on gerbils
Assay type: in vivo, gerbil
Conditions: Meriones unguiculatus, 168 h; both carotides clamped 10 minutes; hippocampes taken one week later; 3H-PK 11195 2 nM; compared to control; significance marks (*, **, ***, NS) given; read-out: Global protection in %
Please enter T where inhibition in vivo at 10 mg/kg is greater than or equal to 30%, and F where it is lower.

{"SMILES INPUT": "Cc1nnc2n1-c1sc3c(c1C(c1ccccc1Cl)=NC2)CCN(S(=O)(=O)c1ccco1)C3", "CLASSIFICATION": "F"}
{"SMILES INPUT": "Cc1nnc2n1-c1sc3c(c1C(c1ccccc1Cl)=NC2)CCN(S(=O)(=O)c1ccc(Oc2ccc([N+](=O)[O-])cc2)cc1)C3", "CLASSIFICATION": "F"}
{"SMILES INPUT": "Cc1nnc2n1-c1sc3c(c1C(c1ccccc1Cl)=NC2)CCN(S(=O)(=O)c1ccc2ccccc2c1)C3", "CLASSIFICATION": "T"}
{"SMILES INPUT": "Cc1nnc2n1-c1sc3c(c1C(c1ccccc1Cl)=NC2)CCN(S(=O)(=O)c1ccccc1)C3", "CLASSIFICATION": "T"}
{"SMILES INPUT": "Cc1nnc2n1-c1sc3c(c1C(c1ccccc1Cl)=NC2)CCN(S(=O)(=O)c1cccs1)C3", "CLASSIFICATION": "T"}
{"SMILES INPUT": "Cc1nnc2n1-c1sc3c(c1C(c1ccccc1Cl)=NC2)CCN(S(=O)(=O)C(C)C)C3", "CLASSIFICATION": "T"}
{"SMILES INPUT": "Cc1nnc2n1-c1sc3c(c1C(c1ccccc1Cl)=NC2)CCN(S(=O)(=O)c1ccc(C(F)(F)F)cc1)C3", "CLASSIFICATION": "T"}
{"SMILES INPUT": "COc1ccc(S(=O)(=O)N2CCc3c(sc4c3C(c3ccccc3Cl)=NCc3nnc(C)n3-4)C2)c(OC)c1OC", "CLASSIFICATION": "F"}
{"SMILES INPUT": "COc1cc(OC)c(S(=O)(=O)N2CCc3c(sc4c3C(c3ccccc3Cl)=NCc3nnc(C)n3-4)C2)cc1S(C)(=O)=O", "CLASSIFICATION": "F"}
{"SMILES INPUT": "Cc1nnc2n1-c1sc3c(c1C(c1ccccc1Cl)=NC2)CCN(S(=O)(=O)c1ccc(C(C)(C)C)cc1)C3", "CLASSIFICATION": "F"}
{"SMILES INPUT": "COc1ccc(S(=O)(=O)N2CCc3c(sc4c3C(c3ccccc3Cl)=NCc3nnc(C)n3-4)C2)cc1OC", "CLASSIFICATION": "F"}
{"SMILES INPUT": "Cc1nnc2n1-c1sc3c(c1C(c1ccccc1Cl)=NC2)CCN(S(=O)(=O)c1c(Cl)cc(Cl)cc1Cl)C3", "CLASSIFICATION": "T"}
{"SMILES INPUT": "Cc1nnc2n1-c1sc3c(c1C(c1ccccc1Cl)=NC2)CCN(S(=O)(=O)c1ccc(Oc2ccc(C(=O)O)cc2)cc1)C3", "CLASSIFICATION": "F"}
{"SMILES INPUT": "COc1ccc(S(=O)(=O)N2CCc3c(sc4c3C(c3ccccc3Cl)=NCc3nnc(C)n3-4)C2)cc1", "CLASSIFICATION": "F"}
{"SMILES INPUT": "Cc1nnc2n1-c1sc3c(c1C(c1ccccc1Cl)=NC2)CCN(S(=O)(=O)c1cccc2cccnc12)C3", "CLASSIFICATION": "F"}
{"SMILES INPUT": "Cc1nnc2n1-c1sc3c(c1C(c1ccccc1Cl)=NC2)CCN(S(=O)(=O)c1ccc(C(=O)O)cc1)C3", "CLASSIFICATION": "F"}
{"SMILES INPUT": "COc1cc(OC)c(S(=O)(=O)N2CCc3c(sc4c3C(c3ccccc3Cl)=NCc3nnc(C)n3-4)C2)cc1SC", "CLASSIFICATION": "F"}

----------
Assay: Toxicity on mice
Settings: mouse, in vivo, IP
Each entry below carries its reported LD50.
READOUT TYPE: LD50

{"COMPOUND": "COc1ccc(S(=O)(=O)N2CCc3c(sc4c3C(c3ccccc3Cl)=NCc3nnc(C)n3-4)C2)c(OC)c1OC [Example 5]", "EXPERIMENTAL RESULT": "500 to 1000 mg/kg"}
{"COMPOUND": "CCCCCCCCCCCCCCCCS(=O)(=O)N1CCc2c(sc3c2C(c2ccccc2Cl)=NCc2nnc(C)n2-3)C1 [Example 1]", "EXPERIMENTAL RESULT": "500 to 1000 mg/kg"}
{"COMPOUND": "Cc1nnc2n1-c1sc3c(c1C(c1ccccc1Cl)=NC2)CCN(S(=O)(=O)c1ccc(Oc2ccc([N+](=O)[O-])cc2)cc1)C3 [Example 10]", "EXPERIMENTAL RESULT": "500 to 1000 mg/kg"}
